biological target: T1, LSALT phage (T7 phage displaying the LSALT peptide LSALTPSPSWLKYKAL) (also: displayed on T7 phage, fused to the coat protein); test: biopanning of a combinatorial M13 phage library against LSALT phage immobilized on nitrocellulose
T1 construct: The peptide is not naturally occurring; it is the out-of-frame product of Ube2n; also called Ube2n (LSALT) phage; LSALT-bacteriophage
T1 peptide: LSALTPSPSWLKYKAL
Ends that are not written are not given here.
property-name: binding result

INSERT INTO measurements (binder, value) VALUES
  ('MNVTPRQ (also called putative target of LSALT) [MNVTPRQ (SEQ ID NO: 11)]', 'binds'),
  ('EQFTNLLDMYTA (also called putative target of LSALT) [EQFTNLLDMYTA (SEQ ID NO: 3)]', 'binds'),
  ('GLHNKTH (also called putative target of LSALT) [GLHNKTH (SEQ ID NO: 14)]', 'binds'),
  ('LGPAHLY (also called putative target of LSALT) [LGPAHLY (SEQ ID NO: 13)]', 'binds');
